Entry source: PubChem BioAssay (EPA / NIEHS)

- Assay target: Retinoic acid receptor RXR-alpha (Homo sapiens) (UniProt P19793)
- Sequence (P19793 whole entry, looked up): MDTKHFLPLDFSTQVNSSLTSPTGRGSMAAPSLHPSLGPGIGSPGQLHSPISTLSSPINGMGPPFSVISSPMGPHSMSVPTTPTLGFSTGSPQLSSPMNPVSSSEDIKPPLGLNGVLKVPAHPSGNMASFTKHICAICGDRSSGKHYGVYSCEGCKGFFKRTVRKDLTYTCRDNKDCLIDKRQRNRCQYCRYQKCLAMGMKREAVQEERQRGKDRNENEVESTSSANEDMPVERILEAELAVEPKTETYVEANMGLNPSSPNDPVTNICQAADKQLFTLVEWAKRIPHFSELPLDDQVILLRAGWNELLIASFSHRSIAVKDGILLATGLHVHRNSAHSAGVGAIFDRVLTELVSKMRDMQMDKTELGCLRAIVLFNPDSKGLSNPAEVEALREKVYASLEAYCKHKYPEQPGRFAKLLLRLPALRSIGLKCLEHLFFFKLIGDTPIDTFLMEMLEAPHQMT
- Method: ATG_RXRa_TRANS: Attagene TRANS-FACTORIAL HepG2 Assay for human Retinoid X Receptor alpha (RXRa) (AID 2283012)
Inconclusive results are not listed. The source made the active and inactive calls. The calls were made as follows: active = hit-call score of the fitted dose curve at least 0.9, where 1 is the maximum; inconclusive = response in the unintended direction; inactive = score below 0.9.
Answer with one of the outcomes 1 (active), 0 (inactive)

[Q] What is the recorded call for this compound in the test? `CNCCCC12CCC(c3ccccc31)c1ccccc12`
[A] 0

[Q] What is the recorded call for this compound in the test? `Clc1ccc2c(c1)C(N1CCNCC1)=Nc1ccccc1O2`
[A] 0

[Q] What is the recorded call for this compound in the test? `CC(C)=CCC/C(C)=C/COC=O`
[A] 0

[Q] What is the recorded call for this compound in the test? `NNc1nc(-c2ccc(N)cc2)cs1`
[A] 0

[Q] What is the recorded call for this compound in the test? `C=CCOc1nc(OCC=C)nc(OCC=C)n1`
[A] 0

[Q] What is the recorded call for this compound in the test? `CC(=O)/C=C/C1=C(C)CCCC1(C)C`
[A] 0

[Q] What is the recorded call for this compound in the test? CCC(O)CO (stereo not given)
[A] 0

[Q] What is the recorded call for this compound in the test? CC(CN1c2ccccc2Sc2ccccc21)N(C)C (stereo not given)
[A] 0

[Q] What is the recorded call for this compound in the test? `NCCNCCN`
[A] 0

[Q] What is the recorded call for this compound in the test? `C=C(C)C(=O)Nc1ccc(Cl)c(Cl)c1`
[A] 0

[Q] What is the recorded call for this compound in the test? `CC(=O)C(C)=O`
[A] 0

[Q] What is the recorded call for this compound in the test? `CO[Si](CCCn1c(=O)n(CCC[Si](OC)(OC)OC)c(=O)n(CCC[Si](OC)(OC)OC)c1=O)(OC)OC`
[A] 0

[Q] What is the recorded call for this compound in the test? `Cc1ccc(O)c(C(C)(C)C)c1`
[A] 0

[Q] What is the recorded call for this compound in the test? `CCOC(=S)SSC(=S)OCC`
[A] 0

[Q] What is the recorded call for this compound in the test? `CCCCCCCCCOC(C)=O`
[A] 0

[Q] What is the recorded call for this compound in the test? `Nc1cc([N+](=O)[O-])ccc1Cl`
[A] 0

[Q] What is the recorded call for this compound in the test? `OCCOCCOCCOCCO`
[A] 0

[Q] What is the recorded call for this compound in the test? `CC(C)Oc1ccccc1O`
[A] 0

[Q] What is the recorded call for this compound in the test? CCCC1CCC(=O)O1 (stereo not given)
[A] 0

[Q] What is the recorded call for this compound in the test? `CCCCC/C=C/C=C/C=O`
[A] 0

[Q] What is the recorded call for this compound in the test? `CC(=O)[C@H]1CC[C@H]2[C@@H]3CC=C4C[C@@H](O)CC[C@]4(C)[C@H]3CC[C@]12C`
[A] 0

[Q] What is the recorded call for this compound in the test? COc1ccnc(CS(=O)c2nc3cc(OC(F)F)ccc3[nH]2)c1OC (stereo not given)
[A] 0

[Q] What is the recorded call for this compound in the test? `O=C(O)c1snc(Cl)c1Cl`
[A] 0

[Q] What is the recorded call for this compound in the test? `COc1cc(C(C)(C)C)c(O)c(C(C)(C)C)c1`
[A] 1

[Q] What is the recorded call for this compound in the test? `Cc1ccc(Nc2ccc(O)c3c2C(=O)c2ccccc2C3=O)cc1`
[A] 0

[Q] What is the recorded call for this compound in the test? `C[Si](O[Si](C)(C)C)O[Si](C)(C)C`
[A] 0

[Q] What is the recorded call for this compound in the test? CCC(C)(O)CCC=C(C)C (stereo not given)
[A] 0

[Q] What is the recorded call for this compound in the test? `COC(=O)OC`
[A] 0

[Q] What is the recorded call for this compound in the test? `O=C(O)Cc1cccc2ccccc12`
[A] 0

[Q] What is the recorded call for this compound in the test? `C=O`
[A] 0
